The measured values listed here are drawn from patent US20210308034A1.

Test system: Staphylococcus epidermidis (ATCC 14990)
test_protocol: Carbohydrate Screening Test Method (Biolog phenotype microarray), Bacteria Code I
Assay type: cell-based
test_settings: Commensal; carbon microarray plate, OD 600 nm, 36 hr, 33° C.; positive = more than 0.05 OD units above zero; blank cell = not utilized
readout: Carbohydrate Screening Results, Bacteria Code I

Consider the following illustrative entries.
molecule	result
OC[C@H]1O[C@H](OC[C@H]2OC(O)(CO)[C@@H](O)[C@@H]2O)[C@H](O)[C@@H](O)[C@@H]1O (stereo partly shown)	Y
N[C@@H](CCO)C(=O)O	Y
C/C(=C/C(=O)O)C(=O)O	Y
C[C@H](O)C(=O)O	Y
O=C[C@H](O)[C@@H](O)[C@H](O)[C@H](O)COP(=O)(O)O [D-Glucose-6-Phosphate]	Y
COC(=O)CCC(=O)O [Mono Methyl Succinate]	Y
CC(=O)C(=O)O	Y
NCCCCN	Y

Exam item: What Carbohydrate Screening Results, Bacteria Code I value was documented for this molecule, NC(=O)CCC(=O)O ?
Marked response: Y

Exam item: How about COC(=O)C(C)=O [Methyl Pyruvate] ?
Marked response: Y

Exam item: Field entry: OC[C@H]1O[C@H](O)[C@H](O)[C@@H](O)[C@@H]1O
Marked response: Y

Exam item: What about OC[C@H]1O[C@@H](O[C@H]2[C@H](O)[C@@H](O)[C@H](O)O[C@@H]2CO)[C@H](O)[C@@H](O)[C@@H]1O ?
Marked response: Y

Exam item: Another: OC[C@H]1O[C@@](CO)(O[C@H]2O[C@H](CO)[C@@H](O)[C@H](O)[C@H]2O)[C@@H](O[C@H]2O[C@H](CO)[C@@H](O)[C@H](O)[C@H]2O)[C@@H]1O
Marked response: Y

Exam item: Here is the next molecule: OC[C@H]1O[C@@H](O[C@H]2[C@H](O)[C@@H](O)[C@@H](O)O[C@@H]2CO)[C@H](O)[C@@H](O)[C@H]1O
Marked response: Y

Exam item: And the next one, OC[C@H]1O[C@@H]2O[C@H]3[C@H](O)[C@@H](O)[C@@H](O[C@H]4[C@H](O)[C@@H](O)[C@@H](O[C@H]5[C@H](O)[C@@H](O)[C@@H](O[C@H]6[C@H](O)[C@@H](O)[C@@H](O[C@H]7[C@H](O)[C@@H](O)[C@@H](O[C@H]1[C@H](O)[C@H]2O)O[C@@H]7CO)O[C@@H]6CO)O[C@@H]5CO)O[C@@H]4CO)O[C@@H]3CO ?
Marked response: Y

Exam item: # iterate: O=C(O)CC(O)C(=O)O (racemic)
Marked response: Y
